Parameter: Hypoglycemic duration. Scope: all listed entries.
tested on: Normal Kunming (KM) mice; assay: multiple OGTT (mOGTT): hypoglycemic duration after a single administration; assay type: in vivo; details: single injection at the same dose (1.126 nmol), subcutaneous
Non-standard residues stand in square brackets, D forms with d. No end group written: not given here. bAib = not defined here
Your answer should be a plain number; it is taken to be in days.

Reference set, count: 2
2G7 series 54: disulfide-linked homodimer of monomer SEQ ID NO: 54 (H[bAib]EGTFTSDVSCYLEGQAAKEFIAWLVR[bAib]R-NH2; reading uncertain; also: disulfide-linked homodimer, disulfide at 12, other end not in the chain, printed as His-βAib-Glu-Gly-Thr-Phe-Thr-Ser-Asp-Val-Ser-Cys-Tyr-Leu-Glu-Gly-Gln-Ala-Ala-Lys-Glu-Phe-Ile-Ala-Trp-Leu-Val-Arg-βAib-Arg-NH2)    5
2G6 series 50: disulfide-linked homodimer of monomer SEQ ID NO: 50 (HXEGTFTSDVSCYLEGQAAXEFIAWLVRGRG; disulfide-linked homodimer; Sequence is synthesized; (2)..(2) Xaa is bAla; (20)..(20) Xaa is 26Lys[N-e-(N-a-oleoyl-L-g-glutamyl)]; (31)..(31) N-terminal)    16

Kindly review the next substance as well.
Which Hypoglycemic duration reading was recorded for the substance 2G4 series 30: disulfide-linked homodimer of monomer SEQ ID NO: 30 (HXEGTFTSDVCSYLEGQAAXEFIAWLVRGRG; not fully specified; disulfide-linked homodimer; Sequence is synthesized; (2)..(2) Xaa is bAib; (20)..(20) Xaa is 26Lys[N-e-(N-a-oleoyl-L-g-glutamyl)]; (31)..(31) N-terminal) ? 16

---

Parameter: Hypoglycemic duration. Scope: all listed entries.
test system: Normal Kunming (KM) mice; test: multiple OGTT (mOGTT): hypoglycemic duration after a single administration; type: in vivo; conditions: single injection at the same dose (1.126 nmol), subcutaneous
Non-standard residues stand in square brackets, D forms with d. No end group written: not given here. βAla = NCCC(=O)O

Reference set, count: 2
2G8 series 56: disulfide-linked homodimer of monomer SEQ ID NO: 56 (HAEGTFTCDVSSYLEGQAAXEFIAWLVRGRG; disulfide-linked homodimer; Sequence is synthesized; (20)..(20) Xaa is 26Lys[N-e-(N-a-palmitoyl-L-g-glutamyl)]; (31)..(31) C-terminal)    2 days
2G4 series 27: disulfide-linked homodimer of monomer SEQ ID NO: 27 (HAEGTFTSDVCSYLEGQAAXEFIAWLVRGRG; not fully specified; disulfide-linked homodimer; Sequence is synthesized; (20)..(20) Xaa is 26Lys[N-e-(N-a-oleoyl-L-g-glutamyl)]; (31)..(31) N-terminal)    15 days

Which Hypoglycemic duration reading was recorded for the substance 2G7 series 55: disulfide-linked homodimer of monomer SEQ ID NO: 55 (H[βAla]EGTFTSDVSCYLEGQAAKEFIAWLVR[βAla]R-NH2; also: disulfide-linked homodimer, disulfide at 12, other end not in the chain) ? 4 days

---

tested on: Normal Kunming (KM) mice; test: multiple OGTT (mOGTT): hypoglycemic duration after a single administration; assay type: in vivo; conditions: monomeric peptides, single injection at the same dose (1.126 nmol), subcutaneous
readout_name: Hypoglycemic (days)
Your answer should be a plain number; it is taken to be in days.

Which Hypoglycemic reading was recorded for the substance His-aAib-Glu-Gly-Thr-Phe-Thr-Ser-Asp-Val-Cys-Ser-Tyr-Leu-Glu-Gly-Gln-Ala-Ala-Lys[N-ϵ-(N-α-oleoyl-L-γ-glutamyl)]-Glu-Phe-Ile-Ala-Trp-Leu-Val-Arg-Gly-Arg-Gly-NH2 (HXEGTFTSDVCSYLEGQAAXEFIAWLVRGRG; αAib; oleoyl-γ-glutamyl on Lys; C-terminal amide; Sequence is synthesized; (2)..(2) Xaa is aAib; (20)..(20) Xaa is 26Lys[N-e-(N-a-oleoyl-L-g-glutamyl)]; (31)..(31) N-terminal) [G2 series 13] ? 7

---

test system: Normal Kunming (KM) mice; assay: multiple OGTT (mOGTT): hypoglycemic duration after a single administration; assay type: in vivo; settings: monomeric peptides, single injection at the same dose (1.126 nmol), subcutaneous
Non-standard residues stand in square brackets, D forms with d. No end group written: not given here. βAib = beta-Aib residue
Parameter: Hypoglycemic. Scope: all listed entries.
Your answer should be a plain number; it is taken to be in days.

His-βAib-Glu-Gly-Thr-Phe-Thr-Cys-Asp-Val-Ser-Ser-Tyr-Leu-Glu-Gly-Gln-Ala-Ala-Lys[N-ϵ-(N-α-oleoyl-L-γ-glutamyl)]-Glu-Phe-Ile-Ala-Trp-Leu-Val-Arg-Gly-Arg-Gly-NH2 (HXEGTFTCDVSSYLEGQAAXEFIAWLVRGRG; beta-Aib; oleoyl-gamma-Glu on Lys; C-terminal amide; Sequence is synthesized; (2)..(2) Xaa is bAib; (20)..(20) Xaa is 26Lys[N-e-(N-a-oleoyl-L-g-glutamyl)]; (31)..(31) N-terminal) [G8 series 66]    3
His-aAib-Glu-Gly-Thr-Phe-Thr-Ser-Asp-Val-Ser-Cys--Tyr-Leu-Glu-Gly-Gln-Ala-Ala-Lys[N-ϵ-(N-α-oleoyl-L-γ-glutamyl)]-Glu-Phe-Ile-Ala-Trp-Leu-Val-Arg-Gly-Arg-Gly-NH2 (HXEGTFTSDVSCYLEGQAAXEFIAWLVRGRG; Aib; oleoyl-gamma-Glu on Lys; C-terminal amide; Sequence is synthesized; (2)..(2) Xaa is aAib; (20)..(20) Xaa is 26Lys[N-e-(N-a-oleoyl-L-g-glutamyl)]; (31)..(31) N-terminal) [G6 series 47]    8
His-aAib-Glu-Gly-Thr-Phe-Thr-Ser-Asp-Val-Ser-Cys-Tyr-Leu-Glu-Gly-Gln-Ala-Ala-Lys[N-ϵ-(N-α-oleoyl-L-γ-glutamyl)]-Glu-Phe-Ile-Ala-Trp-Leu-Val-Arg-Gly-Arg-Gly-OH (HXEGTFTSDVSCYLEGQAAXEFIAWLVRGRG; Aib; oleoyl-gamma-Glu on Lys; C-terminal acid; Sequence is synthesized; (2)..(2) Xaa is aAib; (20)..(20) Xaa is LyO; (31)..(31) C-terminal) [G6 series 46]    5
His-βAib-Glu-Gly-Thr-Phe-Thr-Ser-Asp-Val-Cys-Ser-Tyr-Leu-Glu-Gly-Gln-Ala-Ala-Lys-Glu-Phe-Ile-Ala-Trp-Leu-Val-Lys-βAib-Arg-NH2 (H[βAib]EGTFTSDVCSYLEGQAAKEFIAWLVK[βAib]R-NH2; also: disulfide-linked homodimer via Cys) [G2 series 17]    3

Kindly review the next substance as well.
Which Hypoglycemic reading was recorded for the substance His-aAib-Glu-Gly-Thr-Phe-Thr-Ser-Asp-Val-Cys-Ser-Tyr-Leu-Glu-Gly-Gln-Ala-Ala-Lys[N-ϵ-(N-α-oleoyl-L-γ-glutamyl)]-Glu-Phe-Ile-Ala-Trp-Leu-Val-Arg-Gly-Arg-Gly-OH (HXEGTFTSDVCSYLEGQAAXEFIAWLVRGRG; αAib; oleoyl-γ-glutamyl on Lys; C-terminal acid; Sequence is synthesized; (2)..(2) Xaa is aAib; (20)..(20) Xaa is 26Lys[N-e-(N-a-oleoyl-L-g-glutamyl)]; (31)..(31) C-terminal) [G2 series 14] ? 4

---

Parameter: Hypoglycemic duration. Scope: all listed entries.
test system: Normal Kunming (KM) mice; assay: multiple OGTT (mOGTT): hypoglycemic duration after a single administration; format: in vivo; conditions: single injection at the same dose (1.126 nmol), subcutaneous
Positions of bridges follow the written chain, without caps; N, C: chain ends. Non-standard residues stand in square brackets, D forms with d. Chains are numbered I, II in the order given. No end group written: not given here. bAib = not defined here; βAla = NCCC(=O)O
Your answer should be a plain number; it is taken to be in days.

Reference set, count: 5
2G4 series 35: disulfide-linked homodimer of monomer SEQ ID NO: 35 (HAEGTFTSDVSCYLEGQAAXEFIAWLVRGRG; not fully specified; disulfide-linked homodimer; Sequence is synthesized; (20)..(20) Xaa is 26Lys[N-e-(N-a-palmitoyl-L-g-glutamyl)]; (31)..(31) N-terminal)    15
2G2 series 16: disulfide-linked homodimer of monomer SEQ ID NO: 16 (chain 1 H[bAib]EGTFTSDVCSYLEGQAAKEFIAWLVR[bAib]R; chain 2 H[bAib]EGTFTSDVCSYLEGQAAKEFIAWLVR[bAib]R; disulfide I:11-II:11 (inferred); not fully specified; reading uncertain)    4
2G4 series 26: disulfide-linked homodimer of monomer SEQ ID NO: 26 (HAEGTFTSDVCSYLEGQAAXEFIAWLVRGRG; not fully specified; disulfide-linked homodimer; Sequence is synthesized; (20)..(20) Xaa is 26Lys[N-e-(N-a-oleoyl-L-g-glutamyl)]; (31)..(31) C-terminal)    12
2G4 series 25: disulfide-linked homodimer of monomer SEQ ID NO: 25 (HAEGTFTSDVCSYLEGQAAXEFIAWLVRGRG; not fully specified; disulfide-linked homodimer; Sequence is synthesized; (20)..(20) Xaa is 26Lys[N-e-(N-a-palmitoyl-L-g-glutamyl)]; (31)..(31) N-terminal)    14
2G4 series 34: disulfide-linked homodimer of monomer SEQ ID NO: 34 (HAEGTFTSDVSCYLEGQAAXEFIAWLVRGRG; not fully specified; disulfide-linked homodimer; Sequence is synthesized; (20)..(20) Xaa is 26Lys[N-e-(N-a-palmitoyl-L-g-glutamyl)]; (31)..(31) C-terminal)    13

Kindly review the next substance as well.
Return Hypoglycemic duration measured with Normal Kunming (KM) mice given this substance: 2G8 series 69: disulfide-linked homodimer of monomer SEQ ID NO: 69 (H[βAla]EGTFTCDVSSYLEGQAAKEFIAWLVR[βAla]R; also: disulfide-linked homodimer) 3
